target: Glucose-6-phosphate 1-dehydrogenase (Homo sapiens); test: inhibition of Homo sapiens G6PD, dose series – biochemical, fluorescence, selectivity assay for P. falciparum G6PD inhibitor project, dose response (AID 504792); type: functional
Sequence (P11413 whole entry): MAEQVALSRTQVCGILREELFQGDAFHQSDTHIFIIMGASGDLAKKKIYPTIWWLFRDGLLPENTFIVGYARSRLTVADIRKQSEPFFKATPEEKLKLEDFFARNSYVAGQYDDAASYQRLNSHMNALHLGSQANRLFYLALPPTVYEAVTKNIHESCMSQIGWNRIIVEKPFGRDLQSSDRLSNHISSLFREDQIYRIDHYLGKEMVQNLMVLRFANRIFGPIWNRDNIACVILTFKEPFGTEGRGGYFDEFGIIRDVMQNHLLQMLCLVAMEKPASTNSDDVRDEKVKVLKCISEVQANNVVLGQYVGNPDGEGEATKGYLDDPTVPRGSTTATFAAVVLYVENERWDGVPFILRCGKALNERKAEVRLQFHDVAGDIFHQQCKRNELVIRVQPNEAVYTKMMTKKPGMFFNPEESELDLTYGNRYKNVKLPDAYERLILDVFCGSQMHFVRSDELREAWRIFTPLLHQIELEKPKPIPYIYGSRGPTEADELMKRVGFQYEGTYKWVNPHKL
Calls of active or inactive are those of the source.
PROPERTY: IC50

Answered examples (5):
O=C(Cn1sc2ccccc2c1=O)Nc1ccc(F)cc1 : 14.9 µM (active)
N#CC(C#N)=C1C=CC=CN1/C(=C\c1ccccc1Cl)C(=O)c1ccccc1 : > 80 µM (inactive)
O=C(CCc1ccc(O)c(O)c1)N/N=C/c1cc2c(cc1[N+](=O)[O-])OCO2 : > 80 µM (inactive)
O=C(Cc1ccccc1)NCC(=O)OCC(=O)c1ccc([N+](=O)[O-])cc1 : > 80 µM (inactive)
CN1/C(=C\C(=O)c2cccs2)Sc2ccccc21 : > 80 µM (inactive)

Entry CCCN1CCc2cc(O)cc3c2[C@H]1Cc1ccc(O)c(O)c1-3 — recorded IC50 = > 80 µM (inactive)

Entry Cc1ccc(-n2sc3ccccc3c2=O)cc1 — recorded IC50 = 30.1 µM (inactive)

---

target: Corticotropin-releasing factor receptor 2/Corticotropin-releasing factor-binding protein (Homo sapiens, UniProt P24387+Q13324); assay: activators of CRF receptor 2 with binding protein – uHTS hits, confirmation (AID 602473); assay type: functional; details: read-out: EC50_Mean
Sequence (Q13324 whole entry): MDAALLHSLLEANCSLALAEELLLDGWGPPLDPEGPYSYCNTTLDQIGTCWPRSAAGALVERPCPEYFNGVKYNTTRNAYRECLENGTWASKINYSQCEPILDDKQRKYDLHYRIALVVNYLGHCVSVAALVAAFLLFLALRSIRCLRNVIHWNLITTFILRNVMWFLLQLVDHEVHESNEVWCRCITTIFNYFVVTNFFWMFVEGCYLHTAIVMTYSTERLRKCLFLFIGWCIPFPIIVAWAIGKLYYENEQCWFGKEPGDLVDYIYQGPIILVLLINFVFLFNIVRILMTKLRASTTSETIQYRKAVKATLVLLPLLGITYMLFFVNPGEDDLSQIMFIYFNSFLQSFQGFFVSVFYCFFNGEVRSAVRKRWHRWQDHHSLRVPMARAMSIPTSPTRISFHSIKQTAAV
Sequence (P24387 whole entry): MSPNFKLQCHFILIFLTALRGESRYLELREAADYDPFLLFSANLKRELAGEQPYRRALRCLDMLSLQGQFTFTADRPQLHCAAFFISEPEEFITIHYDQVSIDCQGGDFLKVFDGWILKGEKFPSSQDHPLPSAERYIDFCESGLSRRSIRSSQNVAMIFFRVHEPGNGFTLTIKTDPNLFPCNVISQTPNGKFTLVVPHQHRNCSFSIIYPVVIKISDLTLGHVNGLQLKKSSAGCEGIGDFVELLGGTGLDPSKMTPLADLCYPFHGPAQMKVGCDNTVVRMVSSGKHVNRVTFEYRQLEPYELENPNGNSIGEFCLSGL
Active and inactive are the calls of the source.
PROPERTY: EC50

COC(=O)C1=C(C)N(C)C(C)=C(C(=O)OC)C1c1ccc(F)c(Br)c1 : > 53 µM (inactive)

Entry O=C1CC(c2ccccc2)CN1S(=O)(=O)c1ccccc1 (stereo not drawn) — recorded EC50 = > 53 µM (inactive)

Entry O=C(NCCOC(=O)C1COc2ccccc2O1)c1cccnc1 (stereo not drawn) — recorded EC50 = > 53 µM (inactive)

Entry Cc1c(N2C(=O)C3C4C=CC(C5CC45)C3C2=O)c(=O)n(-c2ccccc2)n1C (stereo not drawn) — recorded EC50 = > 53 µM (inactive)

Entry CC1CCCC(C)N1C(=O)COC(=O)COc1ccc(C#N)cc1 (stereo not drawn) — recorded EC50 = > 53 µM (inactive)

Entry N#CCc1ccc(NS(=O)(=O)c2cccs2)cc1 — recorded EC50 = > 53 µM (inactive)

Entry Cc1ccc(CN(C)C(=O)CCc2c[nH]c3ccccc23)o1 — recorded EC50 = > 53 µM (inactive)

Entry CC1(C)C2CC=C(/C=N/NC(=O)c3ccccc3O)C1C2 (stereo not drawn) — recorded EC50 = 31.1 µM (active)

---

These molecules were tested on Cytochrome P450 3A4 (Homo sapiens); AC50 is the recorded read-out.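 Also: CYP3A4 tested as one member of a cytochrome P450 panel screen.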
Sequence (P08684 whole entry): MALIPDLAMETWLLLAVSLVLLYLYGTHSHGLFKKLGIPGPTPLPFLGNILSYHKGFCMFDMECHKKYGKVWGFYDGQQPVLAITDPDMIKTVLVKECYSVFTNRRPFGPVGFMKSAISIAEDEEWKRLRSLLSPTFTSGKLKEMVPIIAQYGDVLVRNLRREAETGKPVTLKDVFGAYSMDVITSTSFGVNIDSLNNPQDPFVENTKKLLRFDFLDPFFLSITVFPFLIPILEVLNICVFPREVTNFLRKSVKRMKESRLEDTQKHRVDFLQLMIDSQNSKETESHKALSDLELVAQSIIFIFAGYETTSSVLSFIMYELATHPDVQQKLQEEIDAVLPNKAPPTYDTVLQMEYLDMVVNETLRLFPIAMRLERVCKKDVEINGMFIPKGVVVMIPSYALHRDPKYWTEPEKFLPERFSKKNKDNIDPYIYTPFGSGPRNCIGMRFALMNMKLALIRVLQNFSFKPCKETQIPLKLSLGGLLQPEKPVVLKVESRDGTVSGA

Reported AC50 (Cytochrome P450 3A4 (Homo sapiens)) for entry C[C@@H](C(=O)O)[C@@H]1C[C@@]1(C)[C@@H](NC(=O)OCc1ccccc1)c1ccccc1 is 15.8 µM (inconclusive)

Reported AC50 (Cytochrome P450 3A4 (Homo sapiens)) for entry COc1cc(/C=C/C(=O)Nc2ccccc2C(F)(F)F)cc(OC)c1OC is 14.1 µM (inconclusive)

Reported AC50 (Cytochrome P450 3A4 (Homo sapiens)) for entry O=C(O)/C=C\C(=O)Nc1ccc2c(c1)-c1ccccc1C2 is 3.98 µM (inconclusive)

Reported AC50 (Cytochrome P450 3A4 (Homo sapiens)) for entry O=C(NNS(=O)(=O)c1ccc(Cl)cc1)c1cnn(-c2ccccc2)c1-n1cccc1 is 25.1 µM (inconclusive)

Reported AC50 (Cytochrome P450 3A4 (Homo sapiens)) for entry COc1ccc(/C=N\c2c(O)ccc3ccccc23)cc1OC is 6.31 µM (inconclusive)

Reported AC50 (Cytochrome P450 3A4 (Homo sapiens)) for entry Cc1ccc(-c2nnn(CC(=O)N(c3ccccc3)C(C(=O)NCC3CCCO3)c3ccc(Cl)cc3)n2)cc1 (stereo unspecified) is 39.8 µM (inconclusive)

Reported AC50 (Cytochrome P450 3A4 (Homo sapiens)) for entry CCOC(=O)C1CCN(c2c(NCc3ccc(C(=O)NCCC(C)C)cc3)c(=O)c2=O)CC1 is 7.94 µM (inconclusive)

Reported AC50 (Cytochrome P450 3A4 (Homo sapiens)) for entry COc1cccc(-c2ccc3ncnc(NC4CCNCC4)c3c2)c1 is 31.6 µM (inconclusive)

Reported AC50 (Cytochrome P450 3A4 (Homo sapiens)) for entry O=C(O)C[S+]([O-])c1ccc2c3c(cccc13)C(=O)c1ccccc1-2 (stereo unspecified) is 3.98 µM (inconclusive)

---

In this section we review reported EC50 values for a set of compounds.
target: Short transient receptor potential channel 4 (Mus musculus); experiment: block of DAMGO-driven TRPC4 calcium entry – cell-based, HEK293 TRPC4/mu-opioid, Fluo-4 calcium, dose response (AID 434942); type: functional;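 also: potency of inhibitors blocking the TRPC4 calcium response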
Sequence (Q9QUQ5 whole entry): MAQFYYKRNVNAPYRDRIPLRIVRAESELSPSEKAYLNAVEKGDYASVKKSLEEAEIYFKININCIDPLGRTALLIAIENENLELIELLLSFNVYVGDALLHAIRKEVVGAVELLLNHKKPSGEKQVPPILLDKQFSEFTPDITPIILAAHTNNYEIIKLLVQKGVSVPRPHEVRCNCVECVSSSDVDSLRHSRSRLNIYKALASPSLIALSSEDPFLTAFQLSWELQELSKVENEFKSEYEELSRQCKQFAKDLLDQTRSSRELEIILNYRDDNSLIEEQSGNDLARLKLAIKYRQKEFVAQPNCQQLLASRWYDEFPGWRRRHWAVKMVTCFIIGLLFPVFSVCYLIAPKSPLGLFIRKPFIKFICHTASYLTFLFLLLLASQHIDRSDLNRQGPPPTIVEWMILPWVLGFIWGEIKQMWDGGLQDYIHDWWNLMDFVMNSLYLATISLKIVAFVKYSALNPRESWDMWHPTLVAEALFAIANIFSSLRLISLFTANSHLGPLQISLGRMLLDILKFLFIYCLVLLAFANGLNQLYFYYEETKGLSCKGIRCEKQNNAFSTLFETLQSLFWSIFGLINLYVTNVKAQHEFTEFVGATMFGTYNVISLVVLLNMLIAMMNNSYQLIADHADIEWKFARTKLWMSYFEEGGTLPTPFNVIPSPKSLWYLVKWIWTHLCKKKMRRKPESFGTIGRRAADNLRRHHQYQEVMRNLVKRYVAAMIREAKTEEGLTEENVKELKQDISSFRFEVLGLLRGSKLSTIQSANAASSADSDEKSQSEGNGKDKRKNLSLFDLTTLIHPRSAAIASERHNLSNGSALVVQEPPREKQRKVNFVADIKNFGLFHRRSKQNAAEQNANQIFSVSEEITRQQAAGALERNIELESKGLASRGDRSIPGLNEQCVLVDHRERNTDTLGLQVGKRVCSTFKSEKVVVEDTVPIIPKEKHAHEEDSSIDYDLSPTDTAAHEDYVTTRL
The source made the active and inactive calls.

Cc1ccn2cc(CCNC(=O)c3ccc(Br)o3)nc2c1 : 7.5 µM (active)

Reported EC50 (Short transient receptor potential channel 4 (Mus musculus)) for entry CCc1ccccc1N=C(S)N(CCCN(C)C)Cc1cc2cc3c(cc2nc1O)OCO3 is 1.06 µM (active)

Reported EC50 (Short transient receptor potential channel 4 (Mus musculus)) for entry CN(C)CCCNc1c2ccccc2nc2ccccc12 is 1.33 µM (active)

Reported EC50 (Short transient receptor potential channel 4 (Mus musculus)) for entry COc1ccc2c(C)cc(N3CCCCCC3)nc2c1 is 0.531 µM (active)

Reported EC50 (Short transient receptor potential channel 4 (Mus musculus)) for entry CC(C)(C)NCc1ccccc1OCc1cccs1 is 3.76 µM (active)

Reported EC50 (Short transient receptor potential channel 4 (Mus musculus)) for entry Cc1ccc(C(=O)Nc2nnc(C3=COCCO3)o2)cc1C is 0.421 µM (active)

Reported EC50 (Short transient receptor potential channel 4 (Mus musculus)) for entry CCOC(=O)CSc1nc2ccccc2c(=O)n1CC1CCCC1 is 6.68 µM (active)

---

molecular target: Nuclear receptor subfamily 5 group A member 2 (Homo sapiens); format: functional, cell-based;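 also: HEK293T cells transfected with LRH-1 and a StAR promoter luciferase reporter; potency for inhibitors that lower LRH-1 driven reporter light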
Sequence (O00482 whole entry): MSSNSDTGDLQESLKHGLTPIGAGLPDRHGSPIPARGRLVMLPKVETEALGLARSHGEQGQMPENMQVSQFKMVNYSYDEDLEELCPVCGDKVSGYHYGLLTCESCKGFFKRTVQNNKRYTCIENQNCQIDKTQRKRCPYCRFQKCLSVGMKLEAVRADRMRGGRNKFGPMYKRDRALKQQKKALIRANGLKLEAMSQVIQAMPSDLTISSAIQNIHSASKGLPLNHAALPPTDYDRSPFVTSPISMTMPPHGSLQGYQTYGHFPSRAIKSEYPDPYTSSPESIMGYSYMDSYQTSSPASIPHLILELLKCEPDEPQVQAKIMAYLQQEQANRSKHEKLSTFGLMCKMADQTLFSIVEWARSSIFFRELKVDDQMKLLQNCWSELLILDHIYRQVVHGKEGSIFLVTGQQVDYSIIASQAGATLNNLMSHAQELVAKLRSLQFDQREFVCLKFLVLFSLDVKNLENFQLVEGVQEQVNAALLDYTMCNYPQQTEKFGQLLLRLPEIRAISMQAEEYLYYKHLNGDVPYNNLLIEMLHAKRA
Calls of active or inactive are those of the source.
Outcomes you can answer with include only these: T for active, F for inactive

Here's what some known entries look like.
COc1ccc(CCNC(=O)COC(=O)c2cc(Cl)nc(Cl)c2)cc1 : T
CC(=O)Nc1cc(-c2ccc(S(C)(=O)=O)cc2)cn2c(-c3ccc(F)cc3)cnc12 : T
CC(=O)Nc1ccc(NC(=O)CSc2nnnn2C2CCCCC2)cc1 : F
Cc1ccc(NC(=O)CSc2nc3nc(O)cc(O)c3s2)c(Br)c1 : F
CCOc1ccc(OCCN2C(=O)NC(Cc3c[nH]c4ccccc34)C2=O)cc1 (stereo unspecified) : T

# fetch the recorded call for COc1ccc(CCn2c(C)cc(C(=O)COC(=O)c3ccc(O)cc3O)c2C)cc1 here
F

---

In this section we review reported EC50 values for a set of compounds.
molecular target: RNA-binding protein pos-1 (Caenorhabditis elegans, UniProt G5EF15); experiment: disruptors of C. elegans POS-1 RNA interaction – biochemical, fluorescence polarization, dose response (AID 1964);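 also: purified POS-1 fused to maltose binding protein made in E. coli; potency of compounds blocking POS-1 binding to fluorescent RNA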
Sequence (G5EF15 whole entry, the tested form may be a part): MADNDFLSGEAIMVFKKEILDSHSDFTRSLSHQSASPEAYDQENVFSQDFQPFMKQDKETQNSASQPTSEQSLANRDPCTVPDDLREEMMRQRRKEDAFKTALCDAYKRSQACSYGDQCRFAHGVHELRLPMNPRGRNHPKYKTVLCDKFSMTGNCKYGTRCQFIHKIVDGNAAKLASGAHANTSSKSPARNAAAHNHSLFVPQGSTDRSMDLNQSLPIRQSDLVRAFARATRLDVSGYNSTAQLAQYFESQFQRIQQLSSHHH
Calls of active or inactive are those of the source.

Answered examples (9):
NC(=O)c1c(NC(=O)c2c(F)cccc2F)sc2c1CCN(Cc1ccccc1)C2 : 57.1 µM (active)
COc1ccc(C2c3cc(OC)c(OC)cc3CCN2S(C)(=O)=O)cc1OC (stereo not given) : > 300 µM (not active)
CC(=O)c1c(C(C)=O)c(C)n(-c2ccc(C(=O)O)cc2)c1C : > 300 µM (not active)
CN1C[C@H](CO)C=C2c3cccc4[nH]cc(c34)C[C@H]21 : 20.6 µM (active)
O=C(CC1Nc2ccccc2NC1=O)Nc1cc(Cl)cc(Cl)c1 (stereo not given) : 152 µM (active)
Cc1c(N/C=C2\C(=O)NC(=O)N(Cc3ccccc3)C2=O)c(=O)n(-c2ccccc2)n1C : > 300 µM (not active)
CCOC(=O)Cc1csc(NC(=O)c2sc3nc4cc(C)ccc4cc3c2N)n1 : 27.2 µM (inconclusive)
COc1ccc(OC)c(/N=C/c2c(O)oc3ccccc3c2=O)c1 : > 300 µM (inconclusive)
CCCN1CCc2cc(O)cc3c2[C@H]1Cc1ccc(O)c(O)c1-3 : > 300 µM (inconclusive)

As a next step, examine the compound that follows.
Entry Cc1cc(C(F)(F)F)c2c(N)c(C(=O)Nc3cc(C)on3)sc2n1 — recorded EC50 = > 300 µM (inconclusive)

---

In this section we review reported AC50 values for a set of compounds.
biological target: UniProtKB P55789; test: ALR-catalysed DTT oxidation blockers – biochemical, H2O2 detection, luminescence, cherry-pick, dose response (AID 493248)
Sequence (P55789 whole entry): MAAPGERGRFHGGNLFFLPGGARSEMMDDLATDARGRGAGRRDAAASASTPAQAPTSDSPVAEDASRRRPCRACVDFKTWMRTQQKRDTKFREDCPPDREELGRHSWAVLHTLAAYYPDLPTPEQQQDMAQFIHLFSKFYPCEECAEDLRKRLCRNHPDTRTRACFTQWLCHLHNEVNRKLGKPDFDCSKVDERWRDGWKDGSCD
Calls of active or inactive are those of the source.

Answered examples (2):
Cn1cccc1/C=N/N1CCN(c2ccccc2)CC1 : 85.3 µM (active)
Cc1ccc2[nH]c(-c3cccc(N)c3)cc2c1 : 13.2 µM (active)

Reported AC50 (UniProtKB P55789) for entry Cc1c(C(=O)O)c2cc(O)ccc2n1-c1ccccc1 is 5.18 µM (active)

Reported AC50 (UniProtKB P55789) for entry CCC1(C(=O)O)NC(c2cc(OC)ccc2O)C2C(=O)N(Cc3ccccc3)C(=O)C21 (stereo unspecified) is 7.15 µM (active)

Reported AC50 (UniProtKB P55789) for entry CCN(CC)c1ccc(NS(=O)(=O)c2ccc(-c3ccc(O)nn3)o2)c(C)c1 is 0.382 µM (active)

Reported AC50 (UniProtKB P55789) for entry O=C(c1cccc(C(F)(F)F)c1)C1CCCN(C(=O)c2cc(C3CC3)[nH]n2)C1 (stereo unspecified) is 0.392 µM (active)
